# credit: the supplement of paper PMC11061612

# System: IGR-37 (Melanoma)
# test description: Bliss excess, mean over the matrix (fraction); higher = more synergy
What Bliss excess was measured for each of the following?

Prompt: Read the entry CS(=O)(=O)CCNCc1ccc(-c2ccc3ncnc(Nc4ccc(OCc5cccc(F)c5)c(Cl)c4)c3c2)o1 [Lapatinib] + Cn1cnc2c(F)c(Nc3ccc(Br)cc3Cl)c(C(=O)NOCCO)cc21 [Selumetinib] (first compound max 10 µM, 7x7, partner max 10 µM) and write its reported Bliss excess.
Completion: -0.0934

Prompt: Read the entry O=C(c1cc(Cc2n[nH]c(=O)c3ccccc23)ccc1F)N1CCN(C(=O)C2CC2)CC1 [Olaparib] + COc1nnc2ccc(N3CCC(c4ccc(OCCN5CCN(C)C(=O)[C@H]5C)cc4)CC3)nn12 [AZD5153] (first compound max 10 µM, 7x7, partner max 1 µM) and write its reported Bliss excess.
Completion: -0.0984

Prompt: Read the entry CCN(CCO)CCCOc1ccc2c(Nc3cc(CC(=O)Nc4cccc(F)c4)[nH]n3)ncnc2c1 [AZD2811] + O=C(c1cc(Cc2n[nH]c(=O)c3ccccc23)ccc1F)N1CCN(C(=O)C2CC2)CC1 [Olaparib] (first compound max 1 µM, 7x7, partner max 10 µM) and write its reported Bliss excess.
Completion: -0.0353

Prompt: Read the entry C[C@@H]1COCCN1c1cc(C2([S@](C)(=N)=O)CC2)nc(-c2ccnc3[nH]ccc23)n1 [AZD6738] + C1CC(C1)(C(=O)[O-])C(=O)[O-].N.N.[Pt+2] [Carboplatin] (first compound max 10 µM, 7x7, partner max 10 µM) and write its reported Bliss excess.
Completion: -0.0539

----------
What Bliss excess was measured for each of the following?
# System: ONS-76 (Other Solid Carcinomas)
# test description: Bliss excess, mean over the matrix (fraction); higher = more synergy
In your answer, state the number alone without any accompanying words.

Prompt: Read the entry N#Cc1cnc(Nc2cc(NC[C@H]3CNCCO3)c(C(F)(F)F)cn2)cn1 [SRA737] + CCc1c2c(nc3ccc(O)cc13)-c1cc3c(c(=O)n1C2)COC(=O)[C@]3(O)CC [SN-38] (first compound max 10 µM, 7x7, partner max 0.3 µM) and write its reported Bliss excess.
Completion: -0.0554

Prompt: Read the entry CC1(C)CCC(CN2CCN(c3ccc(C(=O)NS(=O)(=O)c4ccc(NCC5CCOCC5)c([N+](=O)[O-])c4)c(Oc4cnc5[nH]ccc5c4)c3)CC2)=C(c2ccc(Cl)cc2)C1 [Venetoclax] + CS(=O)(=O)CCNCc1ccc(-c2ccc3ncnc(Nc4ccc(OCc5cccc(F)c5)c(Cl)c4)c3c2)o1 [Lapatinib] (first compound max 1 µM, 7x7, partner max 10 µM) and write its reported Bliss excess.
Completion: -0.0055

----------
What combination Emax was measured for each of the following?
# Test system: OS-RC-2 (Kidney Carcinoma)
# test description: combination Emax (second highest fraction inhibited in the dose matrix, 72 h); higher = more inhibition; extreme values may be limits of the assay
In your answer, state the number alone without any accompanying words.

Prompt: Read the entry Cc1c2c(nn1C)CSCc1cc(n(C)n1)CSc1cc(c3ccccc3c1)OCCCc1c(C(=O)O)n(C)c3c-2c(Cl)ccc13 [AZD5991] + Cc1cc2ncnn2cc1Nc1ncc2c(n1)n(C1CCOCC1)c(=O)n2C [AZD7648] (first compound max 1 µM, 7x7, partner max 10 µM) and write its reported combination Emax.
Completion: 0.286

Prompt: Read the entry COc1nnc2ccc(N3CCC(c4ccc(OCCN5CCN(C)C(=O)[C@H]5C)cc4)CC3)nn12 [AZD5153] + CN(CC[C@H](CSC1=CC=CC=C1)NC2=C(C=C(C=C2)S(=O)(=O)NC(=O)C3=CC=C(C=C3)N4CCC(CC4)[C@H](C5=CC=CC=C5C6=CC=C(C=C6)Cl)O)S(=O)(=O)C(F)(F)F)CCO [AZD4320] (first compound max 1 µM, 7x7, partner max 1 µM) and write its reported combination Emax.
Completion: 0.292
